# EXPERIMENT NOTES: Half life in Sprague-Dawley rat at 10 mg/kg, iv measured upto 24 hrs by LC-MS/MS analysis
# Format: ADME, organism-based
# EXPERIMENTAL CONDITIONS: in vivo
QUANTITY NAME: half-life (min)
Answers are plain numbers, in min.

## Input Given CCC(CC)O[C@@H]1C=C(C(=O)O)C[C@H](Nc2ncccc2N)[C@H]1NC(C)=O , state its recorded half-life.
## Output 30.6

----------
# EXPERIMENT NOTES: Oral bioavailability in Sprague-Dawley rat at 50 mg/kg measured upto 24 hrs by LC-MS/MS analysis
# Assay type: ADME, organism-based
# EXPERIMENTAL CONDITIONS: in vivo
QUANTITY NAME: bioavailability (%)
Numbers only, in %.

## Input Which bioavailability value is on record for CCC(CC)O[C@@H]1C=C(C(=O)O)C[C@H](Nc2ncccc2N)[C@H]1NC(C)=O ?
## Output 1.58
